We begin with a simple list: items and their reported mMC4R relative percentage of stimulation at 100 μM.
assay system: mMC4R (Mus musculus, UniProt P56450)
Sequence (P56450 whole entry): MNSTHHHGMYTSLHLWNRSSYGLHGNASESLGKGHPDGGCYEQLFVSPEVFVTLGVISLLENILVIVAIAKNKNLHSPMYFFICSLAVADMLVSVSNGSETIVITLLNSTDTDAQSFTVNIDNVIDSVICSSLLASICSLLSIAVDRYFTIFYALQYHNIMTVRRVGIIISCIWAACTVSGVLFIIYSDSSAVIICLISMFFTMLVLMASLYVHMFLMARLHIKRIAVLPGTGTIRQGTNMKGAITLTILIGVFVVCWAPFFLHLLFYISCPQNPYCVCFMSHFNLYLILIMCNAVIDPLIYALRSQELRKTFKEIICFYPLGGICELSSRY
assay info: CRE/β-galactosidase reporter gene bioassay, agonist activity at mMC4R
Format: cell-based
run parameters: ligand at 100 μM, compared to maximal response generated by α-MSH
Square brackets hold non-standard residues; d marks the D form. Peptide text beside a SMILES is read from it. dBip = N[C@H](Cc1ccc(-c2ccccc2)cc1)C(=O)O; dPhe(4-I) = N[C@H](Cc1ccc(I)cc1)C(=O)O; 3Pal = N[C@@H](Cc1cccnc1)C(=O)O
metric name: mMC4R relative percentage of stimulation at 100 μM (%)

>>> measured_value("CC(=O)N[C@@H](Cc1c[nH]c2ccccc12)C(=O)N[C@H](Cc1ccc(-c2ccccc2)cc1)C(=O)N[C@@H](CCCNC(=N)N)C(=O)N[C@@H](Cc1c[nH]c2ccccc12)C(N)=O [Peptide 18, Ac-Trp-DBip-Arg-Trp-NH2] (Ac-W[dBip]RW-NH2)")
45
>>> measured_value("CC(=O)N[C@@H](Cc1cccnc1)C(=O)N[C@H](Cc1ccc(I)cc1)C(=O)N[C@@H](CCCNC(=N)N)C(=O)N[C@@H](Cc1c[nH]c2ccccc12)C(N)=O [Peptide 12, Ac-3PAL-(pI)DPhe-Arg-Trp-NH2] (Ac-[3Pal][dPhe(4-I)]RW-NH2)")
35

====

assay system: mMC3R (Mus musculus, UniProt P33033)
Sequence (P33033 whole entry): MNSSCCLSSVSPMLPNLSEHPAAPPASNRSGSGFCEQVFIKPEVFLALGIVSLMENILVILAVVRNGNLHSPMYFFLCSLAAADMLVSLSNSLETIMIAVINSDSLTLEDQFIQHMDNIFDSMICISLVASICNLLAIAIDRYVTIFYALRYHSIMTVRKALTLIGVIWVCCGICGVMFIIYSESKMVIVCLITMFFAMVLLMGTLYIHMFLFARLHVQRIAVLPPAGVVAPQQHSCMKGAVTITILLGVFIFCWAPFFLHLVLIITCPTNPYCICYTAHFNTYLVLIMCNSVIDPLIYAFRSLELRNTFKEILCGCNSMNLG
assay info: Antagonist Schild analysis against agonist MTII at mMC3R
Assay type: cell-based
run parameters: Ant = antagonist; SA = some stimulatory activity at 100 µM
Square brackets hold non-standard residues; d marks the D form. Peptide text beside a SMILES is read from it. * marks the point of attachment. Bip = N[C@@H](Cc1ccc(-c2ccccc2)cc1)C(=O)O; dBip = N[C@H](Cc1ccc(-c2ccccc2)cc1)C(=O)O; dPhe(4-I) = N[C@H](Cc1ccc(I)cc1)C(=O)O; Octanoyl = CCCCCCCC(=O)*
metric name: mMC3R pharmacology class printed in Fold Diff column (Ant, SA)

>>> measured_value("CCCCCCCC(=O)N[C@@H](Cc1c[nH]cn1)C(=O)N[C@H](Cc1ccc(-c2ccccc2)cc1)C(=O)N[C@@H](CCCNC(=N)N)C(=O)N[C@@H](Cc1c[nH]c2ccccc12)C(N)=O [Peptide 7, Octanoyl-His-DBip-Arg-Trp-NH2]")
"Ant"
>>> measured_value("CCCCCCCC(=O)N[C@@H](Cc1c[nH]cn1)C(=O)N[C@H](Cc1ccccc1)C(=O)N[C@@H](CCCNC(=N)N)C(=O)N[C@H](Cc1ccc(-c2ccccc2)cc1)C(N)=O [Peptide 8, Octanoyl-His-DPhe-Arg-DBip-NH2] (Octanoyl-H[dF]R[dBip]-NH2)")
"Ant"
>>> measured_value("CC(=O)N[C@@H](Cc1ccc(-c2ccccc2)cc1)C(=O)N[C@H](Cc1ccc(I)cc1)C(=O)N[C@@H](CCCNC(=N)N)C(=O)N[C@@H](Cc1c[nH]c2ccccc12)C(N)=O [Peptide 17, Ac-Bip-(pI)DPhe-Arg-Trp-NH2] (Ac-[Bip][dPhe(4-I)]RW-NH2)")
"Ant"

====

We begin with a simple list: items and their reported mMC3R relative percentage of stimulation at 100 μM.
assay system: UniProt P33033
assay info: cell-based
Format: cell-based
run parameters: ligand at 100 μM, compared to maximal response generated by α-MSH
Square brackets hold non-standard residues; d marks the D form. Peptide text beside a SMILES is read from it. Bip = N[C@@H](Cc1ccc(-c2ccccc2)cc1)C(=O)O; dBip = N[C@H](Cc1ccc(-c2ccccc2)cc1)C(=O)O; dPhe(4-I) = N[C@H](Cc1ccc(I)cc1)C(=O)O; Bta = N[C@@H](Cc1csc2ccccc12)C(=O)O; 2Thi = N[C@@H](Cc1cccs1)C(=O)O
metric name: mMC3R relative percentage of stimulation at 100 μM (%)

>>> measured_value("CC(=O)N[C@@H](Cc1cccs1)C(=O)N[C@H](Cc1ccc(I)cc1)C(=O)N[C@@H](CCCNC(=N)N)C(=O)N[C@@H](Cc1c[nH]c2ccccc12)C(N)=O [Peptide 14, Ac-2Thi-(pI)DPhe-Arg-Trp-NH2] (Ac-[2Thi][dPhe(4-I)]RW-NH2)")
40
>>> measured_value("CC(=O)N[C@@H](Cc1c[nH]cn1)C(=O)N[C@H](Cc1ccc(-c2ccccc2)cc1)C(=O)N[C@@H](CCCNC(=N)N)C(=O)N[C@@H](Cc1csc2ccccc12)C(N)=O [Peptide 34, Ac-His-DBip-Arg-3Bal-NH2] (Ac-H[dBip]R[Bta]-NH2)")
55
>>> measured_value("CCCCCCCC(=O)N[C@@H](Cc1c[nH]cn1)C(=O)N[C@H](Cc1ccc(I)cc1)C(=O)N[C@@H](CCCNC(=N)N)C(=O)N[C@@H](Cc1c[nH]c2ccccc12)C(N)=O [Peptide 6, Octanoyl-His-(pI)DPhe-Arg-Trp-NH2]")
50
>>> measured_value("CC(=O)N[C@@H](Cc1c[nH]cn1)C(=O)N[C@H](Cc1ccc(I)cc1)C(=O)N[C@@H](CCCNC(=N)N)C(=O)N[C@@H](Cc1csc2ccccc12)C(N)=O [Peptide 30, Ac-His-(pI)DPhe-Arg-3Bal-NH2] (Ac-H[dPhe(4-I)]R[Bta]-NH2)")
25
>>> measured_value("CC(=O)N[C@@H](Cc1ccccc1)C(=O)N[C@H](Cc1ccc(I)cc1)C(=O)N[C@@H](CCCNC(=N)N)C(=O)N[C@@H](Cc1c[nH]c2ccccc12)C(N)=O [Peptide 15, Ac-Phe-(pI)DPhe-Arg-Trp-NH2] (Ac-F[dPhe(4-I)]RW-NH2)")
20
>>> measured_value("CC(=O)N[C@@H](Cc1c[nH]cn1)C(=O)N[C@H](Cc1ccc(I)cc1)C(=O)N[C@@H](CCCNC(=N)N)C(=O)N[C@@H](Cc1ccc(-c2ccccc2)cc1)C(N)=O [Peptide 29, Ac-His-(pI)DPhe-Arg-Bip-NH2] (Ac-H[dPhe(4-I)]R[Bip]-NH2)")
35
>>> measured_value("CCCCCCCC(=O)N[C@@H](Cc1c[nH]cn1)C(=O)N[C@H](Cc1ccc(-c2ccccc2)cc1)C(=O)N[C@@H](CCCNC(=N)N)C(=O)N[C@@H](Cc1c[nH]c2ccccc12)C(N)=O [Peptide 7, Octanoyl-His-DBip-Arg-Trp-NH2]")
60

====

assay system: mMC1R (Mus musculus, UniProt Q01727)
Sequence (Q01727 whole entry): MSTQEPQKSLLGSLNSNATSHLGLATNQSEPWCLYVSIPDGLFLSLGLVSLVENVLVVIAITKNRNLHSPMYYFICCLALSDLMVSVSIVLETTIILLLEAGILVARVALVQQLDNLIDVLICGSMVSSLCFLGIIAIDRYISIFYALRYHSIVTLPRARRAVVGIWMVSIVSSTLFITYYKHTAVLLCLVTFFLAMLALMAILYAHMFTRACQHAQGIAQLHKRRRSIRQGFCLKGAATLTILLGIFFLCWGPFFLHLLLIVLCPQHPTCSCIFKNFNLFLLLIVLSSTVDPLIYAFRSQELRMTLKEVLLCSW
assay info: CRE/β-galactosidase reporter gene bioassay, agonist activity at mMC1R
Assay type: cell-based
run parameters: fold difference in EC50 vs peptide 1; negative prefix = more potent than 1
Square brackets hold non-standard residues; d marks the D form. Peptide text beside a SMILES is read from it. Bip = N[C@@H](Cc1ccc(-c2ccccc2)cc1)C(=O)O; dBip = N[C@H](Cc1ccc(-c2ccccc2)cc1)C(=O)O; dPhe(4-I) = N[C@H](Cc1ccc(I)cc1)C(=O)O; 2Nal = N[C@@H](Cc1ccc2ccccc2c1)C(=O)O; d1Nal = N[C@H](Cc1cccc2ccccc12)C(=O)O; Bta = N[C@@H](Cc1csc2ccccc12)C(=O)O; 3Pal = N[C@@H](Cc1cccnc1)C(=O)O; Tic = O=C(O)[C@@H]1Cc2ccccc2CN1; 2Thi = N[C@@H](Cc1cccs1)C(=O)O
Label class 1 when mMC1R Fold Diff >= 10; otherwise class 0.

>>> category("CC(=O)N[C@@H](Cc1c[nH]c2ccccc12)C(=O)N[C@H](Cc1ccccc1)C(=O)N[C@@H](CCCNC(=N)N)C(=O)N[C@@H](Cc1csc2ccccc12)C(N)=O [Peptide 25, Ac-Trp-DPhe-Arg-3Bal-NH2] (Ac-W[dF]R[Bta]-NH2)")
"class 1"
>>> category("CC(=O)N[C@@H](Cc1cccs1)C(=O)N[C@H](Cc1ccccc1)C(=O)N[C@@H](CCCNC(=N)N)C(=O)N[C@@H](Cc1csc2ccccc12)C(N)=O [Peptide 27, Ac-2Thi-DPhe-Arg-3Bal-NH2] (Ac-[2Thi][dF]R[Bta]-NH2)")
"class 1"
>>> category("CC(=O)N[C@@H](Cc1ccccc1)C(=O)N[C@H](Cc1ccc(-c2ccccc2)cc1)C(=O)N[C@@H](CCCNC(=N)N)C(=O)N[C@@H](Cc1c[nH]c2ccccc12)C(N)=O [Peptide 20, Ac-Phe-DBip-Arg-Trp-NH2] (Ac-F[dBip]RW-NH2)")
"class 1"
>>> category("CC(=O)N[C@@H](Cc1c[nH]cn1)C(=O)N[C@H](Cc1ccc(I)cc1)C(=O)N[C@@H](CCCNC(=N)N)C(=O)N1Cc2ccccc2C[C@H]1C(N)=O [Peptide 31, Ac-His-(pI)DPhe-Arg-Tic-NH2] (Ac-H[dPhe(4-I)]R[Tic]-NH2)")
"class 0"
>>> category("CC(=O)N[C@@H](Cc1ccc(-c2ccccc2)cc1)C(=O)N[C@H](Cc1ccc(I)cc1)C(=O)N[C@@H](CCCNC(=N)N)C(=O)N[C@@H](Cc1c[nH]c2ccccc12)C(N)=O [Peptide 17, Ac-Bip-(pI)DPhe-Arg-Trp-NH2] (Ac-[Bip][dPhe(4-I)]RW-NH2)")
"class 1"
>>> category("CC(=O)N[C@@H](Cc1c[nH]cn1)C(=O)N[C@H](Cc1ccc(-c2ccccc2)cc1)C(=O)N[C@@H](CCCNC(=N)N)C(=O)N[C@@H](Cc1ccc2ccccc2c1)C(N)=O [Peptide 36, Ac-His-DBip-Arg-Nal(2’)-NH2] (Ac-H[dBip]R[2Nal]-NH2)")
"class 0"
>>> category("CC(=O)N[C@@H](Cc1cccnc1)C(=O)N[C@H](Cc1ccccc1)C(=O)N[C@@H](CCCNC(=N)N)C(=O)N[C@@H](Cc1ccc2ccccc2c1)C(N)=O [Peptide 23, Ac-3PAL-DPhe-Arg-Nal(2’)-NH2] (Ac-[3Pal][dF]R[2Nal]-NH2)")
"class 1"
>>> category("CC(=O)N[C@@H](Cc1c[nH]c2ccccc12)C(=O)N[C@H](Cc1cccc2ccccc12)C(=O)N[C@@H](CCCNC(=N)N)C(=O)N[C@@H](Cc1c[nH]c2ccccc12)C(N)=O [Peptide 19, Ac-Trp-DNal(1’)-Arg-Trp-NH2] (Ac-W[d1Nal]RW-NH2)")
"class 1"
